Where do the numbers come from? From patent US20200338203A1.

STUDY_SYSTEM: T1, Human EphA2 (Ecto) (Human, UniProt P29317 24-537)
T1 construct: extracellular domain
T1 sequence (P29317 24-537): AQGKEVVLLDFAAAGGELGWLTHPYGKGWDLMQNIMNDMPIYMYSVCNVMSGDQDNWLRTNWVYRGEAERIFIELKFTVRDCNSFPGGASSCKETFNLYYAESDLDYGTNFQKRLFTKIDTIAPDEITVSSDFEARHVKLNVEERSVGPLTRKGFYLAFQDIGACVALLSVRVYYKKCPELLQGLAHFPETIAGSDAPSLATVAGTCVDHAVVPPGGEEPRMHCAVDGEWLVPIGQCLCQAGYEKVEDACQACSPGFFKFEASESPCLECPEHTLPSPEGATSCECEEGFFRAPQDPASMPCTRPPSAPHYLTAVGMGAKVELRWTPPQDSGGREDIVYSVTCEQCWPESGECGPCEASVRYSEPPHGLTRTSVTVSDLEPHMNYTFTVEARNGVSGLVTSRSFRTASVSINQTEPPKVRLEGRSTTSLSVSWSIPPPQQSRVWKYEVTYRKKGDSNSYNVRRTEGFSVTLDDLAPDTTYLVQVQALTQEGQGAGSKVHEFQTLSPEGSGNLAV
ASSAY_SUMMARY: FP competition; competitor Compound 18
Numbered stars: 1 amine (or outer) side, 2 acyl side, 3 side chain; on linkers, the order of the positions; unused ones are H or OH. Bridge positions count the residues as written; N and C are the ends. Square brackets hold non-standard residues; d marks the D form. Ends that are not written are not given here. Ala(2-furyl) = N[C@@H](Cc1ccco1)C(=O)O; 1Nal = N[C@@H](Cc1cccc2ccccc12)C(=O)O; TBMB = c1c(C[*:1])cc(C[*:3])cc1C[*:2]; hArg = N=C(N)NCCCC[C@H](N)C(=O)O; Tle = CC(C)(C)[C@H](N)C(=O)O; Aib = CC(C)(N)C(=O)O; βAla = NCCC(=O)O; Sar = CNCC(=O)O
MEASUREMENT_NAME: Ki (nM)

BINDER	Ki [nM]
AEGLPCPWGPFWCPVNRPGCA (linker 6-13-20 via TBMB) [Compound 55]	11.3
[Sar][Sar]ACPWG[Aib]F[1Nal]CPVNRPGC (linker 4-11-18 via TBMB) [Compound 123]	63
Ac-[Sar][Sar]A[dD]VTCP[1Nal]GPFWCPVNRPGC (linker 7-14-21 via TBMB) [Compound 170]	0.6
[Sar][Sar]ACP[1Nal]GPFWCPV[dA][hArg]PGC (linker 4-11-18 via TBMB) [Compound 133]	14

[I] [Sar][Sar]ACP[1Nal]G[Aib]FWCP[Tle]N[hArg]PGC (linker 4-11-18 via TBMB) [Compound 136]
[II] [Sar][Sar]AC[Aib][1Nal]GPFWCPVNRP[dA]C (linker 4-11-18 via TBMB) [Compound 125]
[III] [Sar][Sar]ACPWGPFWCPVNRP[dA]C (linker 4-11-18 via TBMB) [Compound 112]
[IV] Ac-[Sar][Sar]A[dD]VTCPWGPFWCPVNRPGC (linker 7-14-21 via TBMB) [Compound 158]
// ranking: key=Ki, reverse=True Write out the labels following the order that was asked for.
III, I, II, IV

[P] [βAla][Sar][Sar][Sar][Sar][Sar][Sar][Sar][Sar][Sar][Sar]H[dD]VPCPWGPFWCPVNRPGC (linker 16-23-30 via TBMB) [Compound 226]
[Q] [Sar][Sar]AHDVACPWGPFWCPVNRPGC (linker 8-15-22 via TBMB) [Compound 218]
[R] [Sar][Sar]A[Ala(2-furyl)]DVPCPWGPFWCPVNRPGC (linker 8-15-22 via TBMB) [Compound 203]
[S] Ac-[Sar][Sar]AH[dD]V[Sar]CPWGPFWCPVNRPGC (linker 8-15-22 via TBMB) [Compound 212]
Reorder: Ki, max to min. State the ranking by listing the labels in the requested order.
S, Q, P, R

[a] Ac-[Sar][Sar]A[dH]D[Tle]PCPWGPFWCPVNRPGC (linker 8-15-22 via TBMB) [Compound 204]
[b] Ac-[Sar][Sar]A[dD]VTCPWG[Aib]FWCP[Tle]NR[Aib]GC (linker 7-14-21 via TBMB) [Compound 180]
[c] Ac-[Sar][Sar]AADVPCPWGPFWCPVNRPGC (linker 8-15-22 via TBMB) [Compound 195]
// ranking: key=Ki, reverse=True Sort and list the labels as requested.
b, a, c
